Each entry below carries its recorded RAM network inhibition.
# Protocol notes: RAM signaling pathway blockade in yeast – S. cerevisiae, Pdr1DBD-CYC8 efflux-inhibited sensitized strain, primary screen (AID 1298);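 note: 0% = DMSO untreated cells without growth and 100% = 10 µM 1-NA-PP1 full growth; higher means more yeast growth rescued from 5-FOA killing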
# Stated conditions: S. cerevisiae cbk1-as DSE1-URA3 strain, 5-FOA growth OD615, 2 d; at 50 µM; active compounds read high
The source made the active and inactive calls.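 Rule for the calls: active = RAM network inhibition above 8.4% in each of two replicates, 3 SD over the compound average; inconclusive = above 8.4% inhibition in only one replicate; inactive = 8.4% inhibition or less in each replicate.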

Please review the following examples before continuing.
Item under review: CC(=O)Oc1ccc(N2C(=O)CC(N3CCOCC3)C2=O)cc1 (stereo not given) . Reported RAM network inhibition?
0.46% (inactive)

Item under review: COc1cccc(N2CCN(c3ncnc4c3cnn4-c3ccc(C)cc3C)CC2)c1 . Reported RAM network inhibition?
8.39% (inactive)

Item under review: CCN1CCc2c(sc(NC(=O)c3ccc(S(=O)(=O)N4CCOCC4)cc3)c2C(N)=O)C1 . Reported RAM network inhibition?
0.16% (inactive)

Continuing:
Item under review: CC(=O)Nc1nnc(SCc2cccc(F)c2)s1 . Reported RAM network inhibition?
4.84% (inactive)

Item under review: CC1CCCCC1NS(=O)(=O)c1ccc(S(=O)(=O)N2CCN(CCC#N)CC2)cc1 (stereo not given) . Reported RAM network inhibition?
3.44% (inactive)

Item under review: Cc1cccc(NC(=O)COc2ccc(Br)cc2C)n1 . Reported RAM network inhibition?
5.6% (inactive)

Item under review: O=C(OCCN1C(=O)c2ccccc2C1=O)c1cccs1 . Reported RAM network inhibition?
2.97% (inactive)

Item under review: Cc1ccc2c(c1)N(CCCC(=O)NCc1ccc3c(c1)OCO3)C(=O)CO2 . Reported RAM network inhibition?
1.64% (inactive)

Item under review: Cc1occc1-c1nnc2sc(-c3ccc(-c4ccc(Cl)cc4)o3)nn12 . Reported RAM network inhibition?
5.57% (inactive)

Item under review: CCOc1ccccc1Nc1nnc(Cc2ccccc2Cl)c(=O)[nH]1 . Reported RAM network inhibition?
5.74% (inactive)

Item under review: COc1ccc(NC(=O)c2ccc(CN3CCN(c4ccccc4)CC3)cc2)cc1 . Reported RAM network inhibition?
9.97% (inactive)

Item under review: COc1ccc(C2(CNC(C)=O)CCOCC2)cc1OC . Reported RAM network inhibition?
-0.32% (inactive)

Item under review: CCOC(=O)CNC(=O)CSc1nnc(Cn2c(=O)sc3ccccc32)n1C . Reported RAM network inhibition?
3.34% (inactive)

Item under review: CCOC(=O)N1CCN(C(=O)c2oc(=O)c3ccccc3c2-c2ccc(C)cc2)CC1 . Reported RAM network inhibition?
3.87% (inactive)

Item under review: CCOC(=O)c1sc(NC(=O)c2cccnc2)nc1C . Reported RAM network inhibition?
1.1% (inactive)

Values were extracted from PubChem BioAssay.
